- Test system: OVCAR-5 ovarian
- method description: NCI tumour cell line growth inhibition, 48 h
TGI reference

compound	TGI
COc1cc(N)c(Cl)cc1C(=O)N[C@@H]1CCN(CCCOc2ccc(F)cc2)C[C@@H]1OC	> 100 µM
CC(C)(C)c1cc(C(C)(C)C)c(SC2OC(CO)C(O)C(O)C2O)c(O)c1O (stereo unspecified)	32.1 µM
C=C(CN1CCc2ccccc2C1)c1ccc(CCCC(=O)Nc2ccccc2N)cc1	80.2 µM
Cc1cccc(NC(=S)Nc2cccc(Cl)c2)n1	> 100 µM
CC(NC1CCCC[C@@H]1O)c1ccccc1 (stereo partly specified)	> 100 µM
O=c1cc(-c2ccccc2)oc2cc(OCCCCCCCCCCOc3ccc4c(=O)cc(-c5ccccc5)oc4c3)ccc12	> 100 µM
C[C@]12CC[C@H](OC(=O)Nc3ccccc3)CC1=CC[C@@H]1C2CC[C@]2(C)/C(=N/OC(=O)Nc3ccccc3)CCC12 (stereo partly specified)	> 100 µM
COC(=O)N[C@@H](C)CNc1nccc(-c2cn(C(C)C)nc2-c2cc(Cl)cc(NS(C)(=O)=O)c2F)n1	> 100 µM
COC(=O)c1c(CC(=O)OC(C)C)cc2n(c1=O)Cc1c-2nc2ccccc2c1OC	> 100 µM
OC[C@H]1N[C@H](CO)[C@@H](O)[C@H]1O	> 100 µM
C[C@]12CC[C@H]3[C@@H](CC=C4C[C@@H](O)CC[C@@]43C)[C@@H]1C/C(=C\c1ccc([N+](=O)[O-])cc1)[C@@H]2O	78.4 µM
O=Cn1c2ccccc2c2ccccc21	> 100 µM
CCOC(=O)/C=C/c1ccc([N+](=O)[O-])o1	8.13 µM
COc1ccc(-c2cn3ccnc3c(-c3ccc(Cl)cc3)n2)cc1	> 100 µM
COC(=O)C1=C(O)c2cc(OC)c(OC)c(OC)c2C(c2ccc3c(c2)OCO3)[C@@H]1C(=O)OC (stereo partly specified)	> 100 µM
OC(Cc1cccc2ccccc12)CN1CCC(c2ccccc2)CC1 (stereo unspecified)	27.7 µM
COc1c(NC(C)=O)c2ccccc2c2ccccc12	> 100 µM
CC(=O)OC1C2CCC3CC2C2(SCCS2)C31 (stereo unspecified)	> 100 µM
COc1ccc(CN2c3ccccc3Sc3ccccc32)cc1O	36 µM
Cn1cc(-c2csc(-c3ccc(Cl)cc3)n2)c2cccnc21	32.7 µM
CC(C)(O)c1cc(Nc2cc(Oc3cn(C4CC4)nc3C3CCOCC3)ccn2)ccn1	> 100 µM

---

TGI reference
- Tested on: UACC-62 melanoma
- method description: NCI tumour cell line growth inhibition, 48 h

compound	TGI
C#CCn1c(I)cc2c(c1=O)COC(=O)[C@]2(O)CC	> 100 µM
COC(=O)C1=C(O)c2cc(OC)c(OC)c(OC)c2C(c2ccc3c(c2)OCO3)[C@@H]1C(=O)OC (some centres not stated)	> 100 µM
C/C(CC(O)(C(F)(F)F)C(F)(F)F)=N\O	> 10 µM
CCOC(=O)c1c(SC(=O)c2ccc(Cl)cc2)n(-c2ccccc2)c(=S)n(-c2ccccc2)c1=O	> 100 µM
COC(=O)c1c(CC(=O)OC(C)C)cc2n(c1=O)Cc1c-2nc2ccccc2c1OC	> 100 µM
Cc1cccc(NC(=S)Nc2cccc(Cl)c2)n1	> 100 µM
CC12CC(c3ccccc3O1)C(C(=O)Nc1nccs1)C(=O)N2 (configuration not stated)	> 100 µM
COc1ccc(NCn2nc(CCCCCCCCc3nn(CNc4ccc(OC)cc4)c(=S)o3)oc2=S)cc1	> 100 µM
CNC(=O)NCCCCC(NC(C)=O)C(=O)NCc1ccccc1 (configuration not stated)	> 100 µM
O=C1C(=O)N(c2cc(Cl)ccc2Cl)C(=O)C(=O)C1c1nc2ccccc2s1	> 100 µM
COc1c(NC(C)=O)c2ccccc2c2ccccc12	> 100 µM
c1ccc(C2N=C(c3ccccn3)C(c3ccccn3)=NC2c2ccccc2)cc1 (configuration not stated)	> 100 µM
COC(=O)c1c(C(=O)O)c(-c2ccccc2)c(-c2ccccc2)c(-c2ccccc2)c1-c1ccccc1	> 100 µM
C/C(=C\c1ccccc1)C(=O)c1c(C)cc(C)cc1C	> 100 µM
COc1ccc(N=c2nc3sc4cc(Cl)ccc4n3c(N)c2C#N)cc1	> 38.5 µM
O=Cc1c2c(cc3c1CC1(C3)Cc3cc4c(c(C=O)c3C1)CCC4)CCC2	62.3 µM
Cc1cc2ccccc2oc(=O)/c1=N\Nc1ccccc1	> 100 µM
COc1cc(C=NCC(=O)CSC(c2ccccc2)c2ccccc2)ccc1O	27.5 µM
COC1CCC(CO)OO1 (configuration not stated)	> 100 µM
Cn1cc(-c2csc(-c3ccc(Cl)cc3)n2)c2cccnc21	29.8 µM
O=C(CCC(NC(=O)OCc1ccccc1)C(=O)OCc1ccccc1)Nc1cccc(OCc2ccccc2)c1 (configuration not stated)	> 100 µM
COC1(C)CCC(OS(C)(=O)=O)CO1 (configuration not stated)	> 100 µM
COc1ccccc1/C=C(\NC(=O)c1ccccc1)c1nc2ccccc2[nH]1	> 100 µM
OC(Cc1cccc2ccccc12)CN1CCC(c2ccccc2)CC1 (configuration not stated)	28.9 µM
CC(Cl)(CCC(Cl)C(C)(C)Cl)C(=O)CBr (configuration not stated)	22.7 µM
O=C1CC(c2cccc([N+](=O)[O-])c2)C2(C(=O)NC(=S)NC2=O)C(c2cccc([N+](=O)[O-])c2)C1 (configuration not stated)	60.6 µM
Oc1ccc(Nc2nc(Cl)c3[nH]cnc3n2)cc1	> 100 µM
C/C(=N\Nc1nc2cc(F)ccc2s1)c1ccccn1	1.46 µM
CC(C)=CCNc1ncnc2c1ncn2CCC(=O)O	> 100 µM
COc1ccc(C2=NNC(c3sc(Cl)nc3Cl)C2)cc1 (configuration not stated)	21.1 µM
Nc1ccccc1SC(/C=C/NNC1=NC(c2ccccc2)C(c2ccccc2)=NN1)c1ccccc1 (configuration not stated)	24.1 µM
CC(C)(C)c1cc(C(C)(C)C)c(SC2OC(CO)C(O)C(O)C2O)c(O)c1O (configuration not stated)	4.99 µM

---

TGI reference
- Test system: PC-3 prostate
- method description: NCI tumour cell line growth inhibition, 48 h
measurement name: TGI

compound	recorded result
CSC(=S)NCc1cn(C)c2ccccc12	> 100 µM
C[C@H](NC(=O)C(C)(Cc1ccc(O)cn1)NC(=O)c1ccccc1)c1ccccc1 (some centres undefined)	> 100 µM
CC1=NN(c2ccccc2)C(=O)/C1=C\c1c(C)[nH]n(-c2ccccc2)c1=O	> 100 µM
C/C(CC(O)(C(F)(F)F)C(F)(F)F)=N\O	> 10 µM

---

- Test system: SK-MEL-5 melanoma
- method description: NCI tumour cell line growth inhibition, 48 h
TGI reference

molecular string	measurement target	inequality symbol	TGI (µM)
Cn1cc(-c2csc(-c3ccc(Cl)cc3)n2)c2cccnc21	SK-MEL-5 melanoma	=	27.6
Cc1c(C(=O)O)sc2nc[nH]c(=O)c12	SK-MEL-5 melanoma	>	100
COc1ccc2c(CN3CCCC[C@H]3O)cc3cc4c(cc3c2c1)OCO4	SK-MEL-5 melanoma	=	1.39
COc1cccc(C=NC23CC4CC(CC(C4)C2)C3)c1	SK-MEL-5 melanoma	>	100
O=C(NCCCN1CCN(CCCNC(=O)Nc2cc(Cl)ccc2Cl)CC1)Nc1cc(Cl)ccc1Cl	SK-MEL-5 melanoma	>	100

---

- Tested on: HOP-62 NSCLC
- method description: NCI tumour cell line growth inhibition, 48 h
TGI reference

compound	TGI
Cc1cc2ccccc2n2c1nc1ccc(O)cc12	> 10 µM
COc1ccc(/C=C(\C#N)c2cc(OC)c(OC)c(OC)c2)cc1	> 100 µM
Oc1ccc(Nc2nc(Cl)c3[nH]cnc3n2)cc1	> 100 µM
O=Cn1c2ccccc2c2ccccc21	> 100 µM
C=C(CN1CCN(c2ccccn2)CC1)c1ccc(C(=O)Nc2ccccc2N)cc1	> 50 µM
CCCCS(=O)(=O)c1cc(Nc2ccc(O)c3c2C(=O)c2ccccc2C3=O)ccc1C	> 100 µM
CC(NC1CCCC[C@@H]1O)c1ccccc1 (stereo not given in full)	> 100 µM
OC[C@H]1N[C@H](CO)[C@@H](O)[C@H]1O	> 100 µM
O=C(NC1=C(Cl)C(=O)c2ccccc2C1=O)C(=O)c1c(O)c2ccccc2oc1=O	18.8 µM
C#CCn1c(I)cc2c(c1=O)COC(=O)[C@]2(O)CC	> 100 µM

---

TGI reference
- Test system: SF-268 CNS
- method description: NCI tumour cell line growth inhibition, 48 h

compound	inequality symbol	TGI / µM
CC12CC(c3ccccc3O1)C(C(=O)Nc1nccs1)C(=O)N2 (stereo not given)	>	100
COc1cc(C=NCC(=O)CSC(c2ccccc2)c2ccccc2)ccc1O	=	40
Cc1c(C(=O)O)sc2nc[nH]c(=O)c12	>	100
NCCCNCCSP(=O)(O)O	>	750
O=C1c2ccccc2-c2c1c1ccccc1c(=O)n2CCNCCNCCNCCNCCn1c2c(c3ccccc3c1=O)C(=O)c1ccccc1-2	=	0.808
